Sourced from patent US20240150321A1

Please respond with reported pIC50 for every item in the list.
testedTarget: Avi-tagged FL MALT-1 (Homo sapiens (Human), UniProt Q9UDY8)
Sequence (Q9UDY8 whole entry): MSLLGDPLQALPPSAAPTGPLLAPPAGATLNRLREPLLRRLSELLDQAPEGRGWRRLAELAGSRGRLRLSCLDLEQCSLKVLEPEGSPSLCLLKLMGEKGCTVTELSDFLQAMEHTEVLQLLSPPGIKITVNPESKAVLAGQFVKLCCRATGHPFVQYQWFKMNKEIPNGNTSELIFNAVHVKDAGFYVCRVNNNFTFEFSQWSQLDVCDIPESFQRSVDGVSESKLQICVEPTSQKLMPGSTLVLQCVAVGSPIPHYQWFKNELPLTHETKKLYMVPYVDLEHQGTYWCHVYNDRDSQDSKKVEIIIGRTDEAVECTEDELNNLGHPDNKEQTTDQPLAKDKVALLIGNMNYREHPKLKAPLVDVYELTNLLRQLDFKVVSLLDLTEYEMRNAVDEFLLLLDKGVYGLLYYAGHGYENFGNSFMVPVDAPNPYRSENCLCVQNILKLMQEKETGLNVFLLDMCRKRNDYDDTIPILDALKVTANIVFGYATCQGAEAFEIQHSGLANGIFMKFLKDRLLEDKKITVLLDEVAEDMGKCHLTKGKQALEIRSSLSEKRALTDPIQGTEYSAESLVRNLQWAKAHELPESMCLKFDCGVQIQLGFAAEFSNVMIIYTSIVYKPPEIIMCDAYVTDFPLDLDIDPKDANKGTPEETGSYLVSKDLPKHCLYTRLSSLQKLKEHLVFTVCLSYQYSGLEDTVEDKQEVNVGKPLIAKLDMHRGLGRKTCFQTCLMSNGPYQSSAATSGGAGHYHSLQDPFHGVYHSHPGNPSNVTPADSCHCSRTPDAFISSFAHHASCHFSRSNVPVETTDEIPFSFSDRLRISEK
pIC50: −log10 of the molar value.

{"columns": ["compound", "testedTarget", "pIC50"],
 "data": [
  ["COc1ccc2cnn(C)c2c1NS(=O)(=O)c1cnn(-c2cc([C@H](C)N3CCCCC3)ccn2)c1", "Avi-tagged FL MALT-1 (Homo sapiens (Human), UniProt Q9UDY8)", "< 5.60"],
  ["COCCn1ncc2cccc(NS(=O)(=O)c3cnn(-c4cc(C(F)(F)F)ccn4)c3)c21", "Avi-tagged FL MALT-1 (Homo sapiens (Human), UniProt Q9UDY8)", "< 5.60"],
  ["C[C@H]1CN(c2ccnc(-n3cc(S(=O)(=O)Nc4cccc5cnn(C)c45)cn3)c2)C(=O)N1C", "Avi-tagged FL MALT-1 (Homo sapiens (Human), UniProt Q9UDY8)", "< 5.60"],
  ["CCC(F)(F)c1ccnc(-n2cc(S(=O)(=O)Nc3cccc4cnn(C)c34)cn2)c1", "Avi-tagged FL MALT-1 (Homo sapiens (Human), UniProt Q9UDY8)", "< 5.60"],
  ["O=S(=O)(c1cnn(-c2cc(C(F)(F)F)ccn2)c1)N1CCCn2ncc3cccc1c32", "Avi-tagged FL MALT-1 (Homo sapiens (Human), UniProt Q9UDY8)", "< 5.60"]
]}

Value sought for every listed compound: pIC50.
1. Cn1ncc2cccc(NS(=O)(=O)c3cnn(-c4cc([C@]5(F)CCOC5)ccn4)c3)c21
2. CCc1ccc2cnn(C)c2c1NS(=O)(=O)c1cnn(-c2cc(OC)ccn2)c1
3. Cn1ncc2cccc(NS(=O)(=O)c3cnn(-c4cc(N5CCC(F)(F)C5)ccn4)c3)c21
4. COc1ccc2cnn(C)c2c1NS(=O)(=O)c1cnn(-c2cc(N3CCOCC3)ccn2)c1
5. COc1ccc2cnn(C)c2c1NS(=O)(=O)c1cnn(-c2cc(N3CC4CC(C4)C3)ccn2)c1
6. COc1ccc2cnn(C)c2c1NS(=O)(=O)c1cnn(-c2cc(N3CC[C@@H](F)C3)ccn2)c1
7. COCC(C)(C)c1ccnc(-n2cc(S(=O)(=O)Nc3cccc4cnn(C)c34)cn2)c1

[out]
1. < 5.60
2. < 5.60
3. < 5.60
4. < 5.60
5. < 5.60
6. < 5.60
7. < 5.60

---

testedTarget: Avi-tagged FL MALT-1 (Homo sapiens (Human), UniProt Q9UDY8)
procedureText: MALT-1 Fluorogenic Peptide Cleavage Assay (MALT1 inhibition assay)
Assay type: biochemical
measurementSetup: Ac-LRSR-AMC peptide substrate, 30 min pre-incubation, 90 min reaction at room temperature
I'd appreciate it if you could supply IC50 values for the items below.

{"columns": ["compound", "measuredParameter", "endpointResult"],
 "data": [
  ["CC[C@](C)(O)c1ccnc(-n2cc(S(=O)(=O)Nc3cccc4cnn(C)c34)cn2)c1 [Compound I-294]", "IC50", "> 2.5 µM"]
]}

Take each entry in turn and give its IC50.
1. COC1(c2ccnc(-n3cc(S(=O)(=O)Nc4cccc5[nH]nc(C)c45)cn3)c2)COC1 [Compound I-244]
2. COc1ccc2cnn(C)c2c1NS(=O)(=O)c1cnn(-c2cc(C3(C#N)CCCC3)ccn2)c1 [Compound I-449]
3. Cn1ncc2cccc(NS(=O)(=O)c3cnn(-c4cc(C5(O)CCOCC5)ccn4)c3)c21 [Compound I-129]

[out]
1: > 2.5 µM; 2: 1 to 2.5 µM; 3: > 2.5 µM
